Task for the reader: assign each of the following compounds its reported inhibition at 1 µM.
tgt: hDGAT1 (Homo sapiens)
Construct: host or cells: Sf9 insect cells (baculovirus); microsomal preparation
Sequence (O75907 whole entry): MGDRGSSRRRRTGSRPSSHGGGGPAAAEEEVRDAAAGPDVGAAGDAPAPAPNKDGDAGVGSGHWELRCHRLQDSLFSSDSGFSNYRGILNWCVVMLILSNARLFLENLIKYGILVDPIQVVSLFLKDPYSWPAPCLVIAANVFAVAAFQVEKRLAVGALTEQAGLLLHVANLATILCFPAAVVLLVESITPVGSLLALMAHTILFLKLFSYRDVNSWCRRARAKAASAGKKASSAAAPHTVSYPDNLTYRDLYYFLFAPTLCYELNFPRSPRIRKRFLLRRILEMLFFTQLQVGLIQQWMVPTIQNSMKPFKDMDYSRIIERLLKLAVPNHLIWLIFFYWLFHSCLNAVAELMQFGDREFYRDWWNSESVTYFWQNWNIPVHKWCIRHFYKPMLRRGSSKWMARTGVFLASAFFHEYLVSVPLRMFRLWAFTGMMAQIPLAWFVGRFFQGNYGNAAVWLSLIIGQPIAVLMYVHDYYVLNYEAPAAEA
protocolDescription: In-vitro DGAT1 assay (hDGAT1 microsomes from Sf9 cells, 14C oleoyl CoA, triglyceride formation)
Assay type: biochemical
settings: At 1 μM

Some entries whose results are on file:
compound=CC(C)[C@H](NC(=O)c1csc(-c2ccc(NC(=O)Nc3ccc(Cl)cc3Oc3ccccc3)cc2)n1)C(=O)O result="50 to 75%"
compound="CC(C)C(NC(=O)c1cc(-c2ccc(NC(=O)Nc3ccccc3-c3ccccc3)cc2)no1)C(=O)O (stereo not shown)" result="75 to 100%"
compound=CC(C)[C@@H](C(=O)O)N(C)C(=O)c1cc(-c2ccc(NC(=O)NC3CCCCC3)cc2)no1 result="0 to 50%"

Please examine the following record next.
INPUT: Entry CC(C)[C@H](NC(=O)c1cc(-c2ccc(NC(=O)Nc3cccc(Cl)c3)cc2)no1)C(=O)O , system hDGAT1 (Homo sapiens): what inhibition at 1 µM was measured?
OUTPUT: 75 to 100%
